- TESTED_ON: Adenosine receptor A2a (Homo sapiens, UniProt P29274)
- Sequence (P29274 whole entry): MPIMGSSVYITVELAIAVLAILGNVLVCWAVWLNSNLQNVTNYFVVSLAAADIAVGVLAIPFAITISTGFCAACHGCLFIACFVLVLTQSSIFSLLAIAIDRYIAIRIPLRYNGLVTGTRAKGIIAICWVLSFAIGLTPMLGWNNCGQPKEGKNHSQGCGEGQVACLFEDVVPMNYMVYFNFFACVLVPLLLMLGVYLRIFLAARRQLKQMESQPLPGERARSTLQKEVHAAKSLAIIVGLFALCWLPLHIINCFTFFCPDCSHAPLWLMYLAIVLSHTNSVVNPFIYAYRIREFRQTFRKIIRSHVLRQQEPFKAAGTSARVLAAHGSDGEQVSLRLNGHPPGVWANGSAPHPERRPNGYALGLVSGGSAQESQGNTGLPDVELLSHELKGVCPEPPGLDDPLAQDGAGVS
- METHOD_SUMMARY: Displacement of [3H]ZM241385 from human recombinant A2A receptor expressed in human HeLa cell membranes at 1 uM incubated for 30 mins by radioligand binding competition assay relative to control
Binary call on inhibition: Condition met from 10% upward, Condition not met beneath that.

Q) In plain terms: is recorded inhibition at least 10% for CC1=C(C(=O)OC(C)C(F)(F)F)C(c2cccs2)NC(=O)N1 (stereo in doubt; 14k-D2) ?
A) Condition not met

Q) In plain terms: is recorded inhibition at least 10% for CCOC(=O)C1=C(C(F)(F)F)NC(=O)NC1c1ccoc1 (racemic) ?
A) Condition met

Q) In plain terms: is recorded inhibition at least 10% for CC1=C(C(=O)OC(C)C)C(c2ccsc2)n2c(nc3ccccc32)N1 (stereo not drawn) ?
A) Condition not met

Q) In plain terms: is recorded inhibition at least 10% for CC(C)OC(=O)C1=C(C(F)(F)F)Nc2nc3ccccc3n2C1c1ccoc1 (racemic) ?
A) Condition met

Q) In plain terms: is recorded inhibition at least 10% for CC(C)OC(=O)C1=C(C(F)(F)F)NC(=O)NC1c1ccsc1 (racemic) ?
A) Condition not met

Q) In plain terms: is recorded inhibition at least 10% for CCOC(=O)C1=C(C(F)(F)F)Nc2nc3ccccc3n2C1c1ccoc1 (racemic) ?
A) Condition met

Q) In plain terms: is recorded inhibition at least 10% for CCOC(=O)C1=C(C)Nc2nc3ccccc3n2C1c1cccs1 (stereo not drawn) ?
A) Condition met

Q) In plain terms: is recorded inhibition at least 10% for CC1=C(C(=O)OCC(F)(F)F)[C@H](c2ccco2)n2c(nc3ccccc32)N1 ?
A) Condition not met

Q) In plain terms: is recorded inhibition at least 10% for CC1=C(C(=O)OCC(F)(F)F)C(c2ccoc2)n2c(nc3ccccc32)N1 (racemic) ?
A) Condition met

Q) In plain terms: is recorded inhibition at least 10% for CC1=C(C(=O)OC(C(F)(F)F)C(F)(F)F)C(c2ccoc2)NC(=O)N1 (racemic) ?
A) Condition met

Q) In plain terms: is recorded inhibition at least 10% for CC1=C(C(=O)OC(C)C(F)(F)F)C(c2ccsc2)n2c(nc3ccccc32)N1 (racemic) ?
A) Condition met

Q) In plain terms: is recorded inhibition at least 10% for CCOC(=O)C1=C(C)Nc2nc3ccccc3n2C1c1ccoc1 (stereo not drawn) ?
A) Condition met

Q) In plain terms: is recorded inhibition at least 10% for CCOC(=O)C1=C(C(F)(F)F)Nc2nc3ccccc3n2C1c1ccsc1 (racemic) ?
A) Condition met

Q) In plain terms: is recorded inhibition at least 10% for CC1=C(C(=O)OC(C(F)(F)F)C(F)(F)F)C(c2cccs2)NC(=O)N1 (racemic) ?
A) Condition not met

Q) In plain terms: is recorded inhibition at least 10% for CC1=C(C(=O)OC(C(F)(F)F)C(F)(F)F)C(c2ccsc2)n2c(nc3ccccc32)N1 (racemic) ?
A) Condition met

Q) In plain terms: is recorded inhibition at least 10% for CC(C)OC(=O)C1=C(C(F)(F)F)NC(=O)NC1c1ccco1 (racemic) ?
A) Condition met

Q) In plain terms: is recorded inhibition at least 10% for CC1=C(C(=O)OC(C)C(F)(F)F)C(c2ccoc2)n2c(nc3ccccc32)N1 (racemic) ?
A) Condition not met

Q) In plain terms: is recorded inhibition at least 10% for CCOC(=O)C1=C(C)Nc2nc3ccccc3n2C1c1ccco1 (stereo not drawn) ?
A) Condition met

Q) In plain terms: is recorded inhibition at least 10% for CC1=C(C(=O)OC(C)C(F)(F)F)C(c2ccsc2)NC(=O)N1 (stereo in doubt; 14l-D1) ?
A) Condition not met

Q) In plain terms: is recorded inhibition at least 10% for CC1=C(C(=O)OCC(F)(F)F)C(c2ccco2)NC(=O)N1 (racemic) ?
A) Condition not met

Q) In plain terms: is recorded inhibition at least 10% for CC1=C(C(=O)OC(C)C(F)(F)F)C(c2ccco2)NC(=O)N1 (stereo in doubt; 14i-D1) ?
A) Condition not met

Q) In plain terms: is recorded inhibition at least 10% for CC1=C(C(=O)O[C@H](C)C(F)(F)F)C(c2ccco2)n2c(nc3ccccc32)N1 (mixture of isomers) ?
A) Condition met

Q) In plain terms: is recorded inhibition at least 10% for CC(C)OC(=O)C1=C(C(F)(F)F)Nc2nc3ccccc3n2C1c1cccs1 (racemic) ?
A) Condition not met

Q) In plain terms: is recorded inhibition at least 10% for CCOC(=O)C1=C(C(F)(F)F)Nc2nc3ccccc3n2[C@@H]1c1ccoc1 ?
A) Condition not met

Q) In plain terms: is recorded inhibition at least 10% for CC1=C(C(=O)OCC(F)(F)F)C(c2ccco2)n2c(nc3ccccc32)N1 (racemic) ?
A) Condition not met

Q) In plain terms: is recorded inhibition at least 10% for CC1=C(C(=O)OCC(F)(F)F)C(c2cccs2)NC(=O)N1 (racemic) ?
A) Condition not met

Q) In plain terms: is recorded inhibition at least 10% for CC1=C(C(=O)OCC(F)(F)F)C(c2ccsc2)n2c(nc3ccccc32)N1 (racemic) ?
A) Condition met

Q) In plain terms: is recorded inhibition at least 10% for CC1=C(C(=O)OC(C(F)(F)F)C(F)(F)F)C(c2ccsc2)NC(=O)N1 (racemic) ?
A) Condition not met

Q) In plain terms: is recorded inhibition at least 10% for CC1=C(C(=O)OC(C)C(F)(F)F)C(c2ccco2)NC(=O)N1 (stereo in doubt; 14i-D2) ?
A) Condition not met

Q) In plain terms: is recorded inhibition at least 10% for CC(C)OC(=O)C1=C(C(F)(F)F)NC(=O)NC1c1cccs1 (racemic) ?
A) Condition met

Q) In plain terms: is recorded inhibition at least 10% for CCOC(=O)C1=C(C(F)(F)F)Nc2nc3ccccc3n2C1c1ccco1 (racemic) ?
A) Condition not met

Q) In plain terms: is recorded inhibition at least 10% for CC1=C(C(=O)OC(C(F)(F)F)C(F)(F)F)C(c2ccco2)NC(=O)N1 (racemic) ?
A) Condition not met

Q) In plain terms: is recorded inhibition at least 10% for CC1=C(C(=O)OC(C)C)C(c2ccco2)n2c(nc3ccccc32)N1 (stereo not drawn) ?
A) Condition met

Q) In plain terms: is recorded inhibition at least 10% for CCOC(=O)C1=C(C(F)(F)F)Nc2nc3ccccc3n2C1c1cccs1 (racemic) ?
A) Condition not met

Q) In plain terms: is recorded inhibition at least 10% for CCOC(=O)C1=C(C(F)(F)F)Nc2nc3ccccc3n2[C@H]1c1ccoc1 ?
A) Condition met
